tgt: recombinant human ALX receptor (Homo sapiens)
Sequence (P25090 whole entry): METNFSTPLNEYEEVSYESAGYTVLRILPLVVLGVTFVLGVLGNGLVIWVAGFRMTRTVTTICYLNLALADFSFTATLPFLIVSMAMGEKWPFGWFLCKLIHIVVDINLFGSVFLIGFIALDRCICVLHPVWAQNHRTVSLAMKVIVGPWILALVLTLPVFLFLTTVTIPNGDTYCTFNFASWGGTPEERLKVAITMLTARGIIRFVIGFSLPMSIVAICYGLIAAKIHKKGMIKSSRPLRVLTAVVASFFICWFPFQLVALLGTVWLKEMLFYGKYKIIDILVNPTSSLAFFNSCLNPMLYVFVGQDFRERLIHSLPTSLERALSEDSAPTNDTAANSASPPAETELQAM
protocol-notes: Intracellular calcium measurements (FLIPR), ALX receptor agonistic activity
test-parameters: HEK293-hALXR-Gα16 cells; normalized to WKYMVm 10 nM; read-out: EC50 (agonistic activity with respect to the ALX receptor)
reported-endpoint: EC50 (nM)
Give bare numbers, in nM.

Give recombinant human ALX receptor (Homo sapiens) EC50 for Cc1ccc(C2(NC(=O)C3C(C(=O)NCCCCN4CCCC4)C4CCC3C43CC3)CC2)cc1 (stereo not shown)
4
